B1: CPEB3 Ribozyme (parent)
chain: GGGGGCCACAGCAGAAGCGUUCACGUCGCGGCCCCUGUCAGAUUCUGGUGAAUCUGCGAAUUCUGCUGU

Variants of: B1
Protocol Details: self-cleavage, relative activity (ratio to wild type); higher = more cleavage; co-transcriptional
Readout Label: self-cleavage
Kindly provide the number alone.

So what does the record say about self-cleavage for A13G G58A ? 0.902

Recorded self-cleavage for C18A G28A , please? 0.12

Entry G1A G37U : reported self-cleavage = ? 0.104
